# Test system: ACHN renal
# Run description: NCI-60 one-dose screen, 48 h
# Test context: 10 µM unless noted
About 83,000 compounds went through this panel and 20% of them were active in at least one assay; those are over-represented in the sample as a whole. The source made the active and inactive calls. How the source made its calls: active means growth percent below 10; inactive means the rest.
Use one of these outcomes when replying: label 1 for active, label 0 for inactive

Here are 10 molecules together with their reported answers.
Molecule: N#CC1(C#N)C2=C(CCCC2)NC(c2c(F)cccc2Cl)C1(C#N)C#N (stereo not drawn)
Label value: label 0

Molecule: COc1ccc(C2=NN(c3ccc(S(N)(=O)=O)cc3)C(c3ccc(Cl)cc3)C2)c(O)c1 (stereo not drawn)
Label value: label 0

Molecule: Cc1cc(C)c(NC(=O)c2sc3nc4c(cc3c2N)CCCCCC4)c(C)c1
Label value: label 0

Molecule: CCn1cc(C(=O)O)c(=O)c2cc(F)c(N3CCN(CC(=O)Nc4ccc(/C(C)=N/OC)cc4)CC3)cc21
Label value: label 0

Molecule: COc1cc(NCC(=O)Nc2cc(Nc3cccc(C(F)(F)F)c3)ncn2)c(Cl)c(OC)c1Cl
Label value: label 0

Molecule: COc1ccc(C(=O)c2cc(F)c(F)c(OC)c2F)cc1OC(=O)CCl
Label value: label 0

Molecule: Nc1c(C(=O)Nc2cccc3ccccc23)sc2nc3c(cc12)CCCCC3
Label value: label 0

Molecule: O=C(Nc1ccc2ncnc(Nc3cccc(C(F)(F)F)c3)c2c1)c1cccs1
Label value: label 0

Molecule: COc1cc(NCC(=O)Nc2cc(Nc3ccc(C)cc3)ncn2)c(Cl)c(OC)c1Cl
Label value: label 0

Molecule: CC(C)CSc1nc(Nc2ccccc2)c(C#N)c(-c2ccc(F)cc2)n1
Label value: label 1

Q: Identify the outcome logged in this assay for the molecule shown: COC1=CC2C=C(C3N(c4ccccc4)NC(=O)[C@@H]4CCCN34)C(=O)NC2C=C1 (stereo partly drawn)
A: label 0

Q: Recorded test outcome, item Nc1cc(N)c(S(=O)(=O)O)cc1N=Nc1cc([N+](=O)[O-])ccc1O
A: label 0

Q: Call for entry COc1ccc2cc(/C=C3\N=C(c4cc(OC)c(OC)c(OC)c4)OC3=O)c(OC)nc2c1 :
A: label 0

Q: What classification did CC(C)(C#N)c1cc(F)cc(C(=O)Nc2cc(Nc3ncccc3-c3ncnc4nc[nH]c34)ccc2F)c1 end up with in this test?
A: label 0

Q: Would you mind telling me which call this test gave O=C(C[n+]1cccc2cc(Cl)ccc21)c1ccc2c(c1)CCCC2 ?
A: label 0

Q: State the result this test recorded for c1ccc(-c2cn3ccnc3c(-c3ccc4c(c3)ncn4C3CCCCC3)n2)cc1 .
A: label 0

Q: GET /call?item= Nn1c(SCC(=O)Nc2ccc(Cl)cc2)nnc1-c1cc(F)c(Cl)cc1Cl returns the recorded outcome of this test.
A: label 0

Q: Answer briefly: the call reported for C=C1C(=O)O[C@H]2[C@H]1CC/C(COC(=O)Nc1nc3ccccc3[nH]1)=C\CC[C@@]1(C)O[C@@H]21 in this assay.
A: label 0

###

# Test system: SK-MEL-5 melanoma
# Run description: NCI-60 one-dose screen, 48 h (100 = growth as untreated, 0 = no growth, -100 = all killed)
# Test context: 10 µM unless noted
# Protocol: Growth inhibition of the SK-MEL-5 human tumor cell line is measured as a screen for anti-cancer activity. Cells are grown in 96 well plates and exposed to the test compound for 48 hours. Compounds are tested at a single concentration, which is 10^-5 M for most compounds. The reported endpoint is percent growth (GI% or GIPRCNT), where numbers from 0 - 100% represent growth inhibition, and numbers from -100% - 0 represent cell death. For example, a value of 40 represents 60% growth inhibition. […]
About 83,000 compounds went through this panel and 20% of them were active in at least one assay; those are over-represented in the sample as a whole.
Overview of recorded growth for various molecules
Reply numerically in %, unit not repeated.

Q: GET /values?readout=growth&system=SK-MEL-5 melanoma&item= CCCCc1ccc(N=Nc2ccc(OCC[N+](C)(C)C)cc2)cc1
A: 89.4

Q: Form: Entry = COc1cc(/C=C/C(=O)/C=C/c2cc3ccc(Cl)cc3[nH]c2=O)ccc1O | System = SK-MEL-5 melanoma | growth = ____
A: 60.8

Q: Short answer please: growth, SK-MEL-5 melanoma, entry CCCCC(=O)Nc1c(C(=O)Nc2ccccc2)sc2nc3c(cc12)C(OC(=O)CCCC)CCC3 (configuration not stated)
A: 84.5

Q: What value of growth on SK-MEL-5 melanoma does CC1CCCN(CCCCCOc2ccc3oc4ccccc4c(=O)c3c2)C1 (configuration not stated) have?
A: -59.2

Q: Notebook entry, SK-MEL-5 melanoma assay: growth of N#Cc1ccc(N2Cc3cc(Cl)ccc3OC3=C2C(=O)N(Cc2ccc(F)cc2)C3=O)cc1 = ?
A: -33.1

Q: State its growth on SK-MEL-5 melanoma: COC1=CC2C=C(C3N(c4ccccc4)NC(=O)[C@@H]4CCCN34)C(=O)NC2C=C1 (some centres not stated)
A: 102

Q: Give SK-MEL-5 melanoma growth for CCOC(=O)c1c(C)nc2c(c1N)/C(=C/c1ccccn1)C(=O)N2Cc1ccccc1
A: 41.2

Q: Short answer please: growth, SK-MEL-5 melanoma, entry COc1ccc(/C(=N\O)c2cc(C)c(OC)c(C)c2)cc1O
A: -7.18

Q: Form entry - test system: SK-MEL-5 melanoma; read-out: growth; molecule: O=C(Nc1cc(Nc2ncccc2-c2ncnc3nc[nH]c23)ccc1F)c1cc(C(F)(F)F)cc(C(F)(F)F)c1
A: -17.5

Q: Give SK-MEL-5 melanoma growth for COc1cc2c(cc1OCCCOc1cc3c(cc1OC)C(=O)N1CC(F)(F)C[C@H]1C=N3)N=C[C@@H]1CC(F)(F)CN1C2=O
A: -77.3

###

# Test system: MCF7 breast
# Run description: NCI-60 one-dose screen, 48 h (100 = growth as untreated, 0 = no growth, -100 = all killed)
# Test context: 10 µM unless noted
The panel holds about 83,000 compounds, 20% with a hit somewhere; the sample as a whole holds those more often.
Each record is given 1 if its reported growth is strictly below 30%. Records at or above 30% are given -1.

Reference set, count: 6
Compound: OCCNc1nc(NCCO)nc(Nc2ccc(C3=NN(c4ccc(Cl)cc4)C(c4ccc(Cl)cc4)C3)cc2)n1 (centres undefined)
Measurement target: MCF7 breast
Label value: 1

Compound: CC(=O)Oc1ccc(O)cc1
Measurement target: MCF7 breast
Label value: -1

Compound: CC1CCCN(CCCCCOc2ccc3oc4ccc(Cl)cc4c(=O)c3c2)C1 (centres undefined)
Measurement target: MCF7 breast
Label value: -1

Compound: Cc1nccc2c3ccc(OCc4cn(-c5ccccc5)nn4)cc3n(CCCc3ccccc3)c12
Measurement target: MCF7 breast
Label value: -1

Compound: COc1ccc2[nH]c(-c3ccccc3)c(C=C(C#N)C#N)c2c1
Measurement target: MCF7 breast
Label value: 1

Compound: Cc1ccc(SC2c3ccc(C)cc3Oc3nc(N)c(C#N)c(N)c32)cc1 (centres undefined)
Measurement target: MCF7 breast
Label value: 1

Q: Consider the compound Nc1c(C(=O)Nc2ccccc2Cl)sc2nc3c(cc12)CN(Cc1ccccc1)CC3 . Is its growth strictly less than 30%?
A: -1

Q: Please let me know if CC(=O)ON1CCCC(P(=O)(OCOC(=O)C(C)(C)C)OCOC(=O)C(C)(C)C)C1=O (centres undefined) shows growth below 30%.
A: 1

Q: Take the compound Cc1cc(C)c(NC(=O)c2sc3nc4c(cc3c2N)CCCCCC4)c(C)c1 and say whether its growth is less than 30%.
A: 1

Q: Dear reviewer, please state whether C=C(C)[C@@H]1CC[C@]2(C(=O)OCCOCCOCC[P+](c3ccccc3)(c3ccccc3)c3ccccc3)CC[C@]3(C)[C@H](CC[C@@H]4[C@@]5(C)CC[C@H](OC(C)=O)C(C)(C)[C@@H]5CC[C@]43C)[C@@H]12 has growth strictly beneath 30%.
A: 1

Q: Please state whether growth is below 30% for NS(=O)(=O)c1ccc(N2Cc3cc(Cl)ccc3OC3=C2C(=O)N(CC2CCCCC2)C3=O)cc1
A: 1

###

# Test system: CCRF-CEM leukemia
# Run description: NCI-60 one-dose screen, 48 h (100 = growth as untreated, 0 = no growth, -100 = all killed)
# Test context: 10 µM unless noted
About 83,000 compounds went through this panel and 20% of them were active in at least one assay; those are over-represented in the sample as a whole.
Please note: YES applies when growth is 40% or greater, and NO applies otherwise.

Before answering, review these 5 worked examples.
Molecule: COc1ccc(-c2cc(-c3nnc(SCC(=O)Nc4ccc(/C(C)=N\O)cc4)n3-c3ccccc3)c3cc(OC)ccc3n2)cc1
Label value: NO

Molecule: O=C(CSC(=S)N1CCCCC1)Nc1ccccc1
Label value: YES

Molecule: O=Cc1[nH]c(Sc2ccccc2)c2ccccc12
Label value: NO

Molecule: COc1ccc(/C(=N\O)c2cc(C)c(OC)c(C)c2)cc1O
Label value: NO

Molecule: C#C[C@@]1(O)[C@@H](CO)O[C@@H](n2cc(F)c3c(N)ncnc32)[C@@H]1O
Label value: NO

Q: Decide: growth of CC(=O)O[C@@H]1C[C@]2(C)[C@H]3[C@H](O)C[C@@H]4C5=CC(C)(C)CC[C@]5(C)CC[C@@]4(C)[C@]3(C)CC[C@H]2C(C)(C)[C@H]1O >= 40%?
A: YES

Q: Kindly determine if growth recorded for CCOC(=O)NCCc1nc2c([nH]1)c(=O)n(C)c(=O)n2C is above or exactly 40%.
A: YES

Q: Evaluate O=C1NC(c2ccc(F)cc2)N=C2C(c3ccccc3)=NOC12 (centres undefined) : growth at minimum 40%?
A: YES

Q: Decide: growth of COc1ccc([C@H]2[C@@H](F)C(=O)N2c2cc(OC)c(OC)c(OC)c2)cc1F >= 40%?
A: NO

The values you see were collected from PubChem BioAssay (NCI).
